measurement-protocol: Quantitative High-Throughput drug screen in 47 multiple myeloma cell lines against the NCATS MIPE library collection: OCIMY7_PLB cell viability assay (AID 1918987); also: nearly all actives have a fitted effect of over 65% in size
measurement-context: OCI-MY7 myeloma viability, CellTiter-Glo ATP, 48 h; series mostly up to 45.8 µM
Inconclusive results are not listed. Activity calls are given as the source filed them. Calls follow the shape of the dose curve; as a rule, active = well fitted cell-killing curve with a large enough effect; inconclusive = small, poorly fitted or top-dose-only effect, or effect the other way; inactive = no such curve, though single readings can be large or run the other way.
Just give me one of these, please: active, inactive

C=CC(=O)Nc1cc2c(Nc3ccc(F)c(Cl)c3)ncnc2cc1C#CC(C)(C)N1CCN(C)CC1 = active
NCC(=O)Nc1ccc(-n2nc(C(F)(F)F)cc2-c2ccc3c(ccc4ccccc43)c2)cc1 = active
Cc1nc(Nc2n[nH]c3c2CN(C(=O)N[C@H](CN(C)C)c2ccccc2)C3(C)C)c2sccc2n1 = active

Just curious, what result did `COc1ccc(C=Cc2cc(OC)c(OC)c(OC)c2)cc1O` get here?
inactive

Just curious, what result did `Cc1nc2cnc3ccc(C#Cc4cccnc4)cc3c2n1-c1ccc(C(C)(C)C#N)cc1` get here?
active

###

measurement-protocol: Cell Proliferation Assay against the TMD8 Cell Line (Caspase readout at 8 hrs) (AID 651713); also: potency is read from the fitted curve at half-maximal effect;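 as to caspase activation: 0% = DMSO and 100% = 9.2 µM bortezomib caspase signal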
measurement-context: TMD8 lymphoma cells, caspase activation luminescence; series mostly up to 46.1 µM
Results filed as inconclusive are left out. Activity calls are given as the source filed them. The call rests on the fitted dose curve; in most records, active means well fitted activation curve with a large enough effect; inconclusive means small, poorly fitted or top-dose-only effect, or another doubt; inactive means no such curve, though single readings can be large or run the other way.
value-type: Potency

For orientation, consider the following solved cases.
Cc1[nH]nc2ccc(-c3cncc(OC[C@@H](N)Cc4ccccc4)c3)cc12 = 2.35 µM (active)
COc1cc2ncn(-c3cc(OCc4ccccc4C(F)(F)F)c(C(N)=O)s3)c2cc1OC = inactive
CC(=O)Nc1sc2c(c1-c1nc3ccccc3s1)CNC2 = 33.2 µM (active)
CCCCN1CCC(CNC(=O)c2c3n(c4ccccc24)CCCO3)CC1 = inactive

Continue with the compound presented below.
Data point: CC1(O)CC(c2nc(-c3ccc4ccc(-c5ccccc5)nc4c3)c3c(N)nccn23)C1 (stereo not given) ; Potency = inactive

###

measurement-protocol: High-throughput drug toxicity screening in the BPDCN cell line Gen2.2 (AID 1224824);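 also: cells exposed to compounds for 48 h before reading; 100% = DMSO and 0% = bortezomib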
measurement-context: Gen2.2 BPDCN cells; at 45.8 µM (top of the series) unless noted
Please respond with reported cell viability, % of control (lower = more cytotoxic) for every item in the list.
Numbers only, in %.

For orientation, consider the following solved cases.
CCOc1cc2ncc(C#N)c(Nc3ccc(F)c(Cl)c3)c2cc1NC(=O)C=CCN(C)C = 17.3
Cc1ccc(C(=O)Nc2cccc(C(F)(F)F)c2)cc1-c1ccc2nc(NCCN3CCOCC3)ncc2c1 = 11.1
CC(NCc1ccc2c(c1)nc(NC(=O)c1ccc(-c3cn[nH]c3)s1)n2CC(C)(C)O)C(C)(C)C (stereo not given) = 2.71
CC1(C)CC(=O)c2c(C(F)(F)F)nn(-c3ccc(C(N)=O)c(NC4CCC(OC(=O)CN)CC4)c3)c2C1 (stereo not given) = 1.95

Continue with the compound presented below.
Data point: CCOc1ccccc1OCCNC(C)Cc1ccc(OC)c(S(N)(=O)=O)c1 (stereo not given) ; cell viability, % of control (lower = more cytotoxic) = 122

###

measurement-protocol: qHTS Screen of the MIPE 4.0 Collection Against Ewings Sarcoma (RDES) (AID 1259252); also: nearly all actives have a fitted effect of over 35% in size; also: potency is read from the fitted curve at half-maximal effect
measurement-context: RD-ES Ewing sarcoma viability, CellTiter-Glo, 48 h; series mostly up to 45.8 µM
Results filed as inconclusive are left out. Active and inactive are the calls of the source. Calls follow the shape of the dose curve; as a rule, active = well fitted inhibition curve with a large enough effect; inconclusive = small, poorly fitted or top-dose-only effect; inactive = no such curve, though single readings can be large or run the other way.
value-type: Potency

For orientation, consider the following solved cases.
CNC(=O)c1nn(C)c2c1C(C)(C)Cc1cnc(Nc3ccc(N4CCN(C)CC4)cc3)nc1-2 = 1.66 µM (active)
Nc1ccccc1NC(=O)c1ccc(CNc2nccc(-c3cccnc3)n2)cc1 = 1.32 µM (active)
NC(=O)c1c(OCc2c(F)cc(Br)cc2F)nsc1NC(=O)NCCCCN1CCCC1 = 16.6 µM (active)
COc1cccc(Nc2c(C(N)=O)cnc3c(C)cc(S(=O)(=O)c4cccc(C(=O)N(C)C)c4)cc23)c1 = inactive
CN1c2cc(O)c(N=NC(N)=O)cc2CC1S(=O)(=O)O (stereo not given) = inactive
CNC(=O)c1ccccc1Nc1nc(Nc2ccc(N3CCOCC3)cc2OC)ncc1Cl = 11.8 µM (active)
CC[C@H](CO)Nc1nc(NCc2ccccc2)c2ncn(C(C)C)c2n1 = 16.6 µM (active)
Cc1c(Cn2c(C)nc3c(C(=O)O)cc(N4CCOCC4)cc32)cccc1C(F)(F)F = 14.8 µM (active)
c1cc(-c2cnn3cc(-c4ccc(OCCN5CCCCC5)cc4)cnc23)ccn1 = 20.9 µM (active)

Continue with the compound presented below.
Data point: COc1ccc(C(=O)CC2(O)C(=O)Nc3c(Cl)ccc(Cl)c32)cc1 (stereo not given) ; Potency = 2.35 µM (active)
